Test system: 922993-354-T-J3-PDC complex spheroids, viability;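 also: spheroids exposed to compounds for seven days; 100% = DMSO vehicle control viability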
ASSAY_PROCEDURE: Anticancer human tumor 922993-354-T-J3-PDC patient-derived endometrial carcinoma cell line growth inhibition [GQUAD]
APPLIED_CONDITIONS: second compound 0.316 µM; first compound 0.316 µM; hits give low values
The reader will find reported viability, T/C values listed item by item below.
Unit % implied. Number only.

Solved entries:
# COMPOUND, UNIT_INFO, viability, T/C
records = [
    ("COc1cccc2c1C(=O)c1c(O)c3c(c(O)c1C2=O)CC(O)(C(=O)CO)CC3OC1CC(N)C(O)C(C)O1 (stereo unspecified) + CN(C)c1ccc(Nc2c3ccc(NC(=O)CCN4CCCC4)cc3nc3cc(NC(=O)CCN4CCCC4)ccc23)cc1", "%", 67.3),
    ("CCc1c2c(nc3ccc(O)cc13)-c1cc3c(c(=O)n1C2)COC(=O)[C@]3(O)CC + Cc1cnc(CNC(=O)c2c(=O)c3ccc(N4CCCN(C)CC4)nc3n3c2sc2ccccc23)cn1", "%", 52.1),
    ("CC(C)n1c(=O)n(C)c2cnc3cc(F)c(-c4ccc(OCCCN5CCCCC5)nc4)cc3c21 + Cc1cnc(CNC(=O)c2c(=O)c3ccc(N4CCCN(C)CC4)nc3n3c2sc2ccccc23)cn1", "%", 46.9),
    ("Cn1ncnc1[C@H]1c2n[nH]c(=O)c3cc(F)cc(c23)N[C@@H]1c1ccc(F)cc1 + Cc1cnc(CNC(=O)c2c(=O)c3ccc(N4CCCN(C)CC4)nc3n3c2sc2ccccc23)cn1", "%", 32),
    ("CC1COCCN1c1cc(-c2ccnn2C)c2ccnc(-c3ccn[nH]3)c2n1 (stereo unspecified) + Cc1cnc(CNC(=O)c2c(=O)c3ccc(N4CCCN(C)CC4)nc3n3c2sc2ccccc23)cn1", "%", 37.2),
]

GET /value?item= CC1COCCN1c1cc(C2(O)CC3CCC(C2)O3)c2cnn(-c3ccn[nH]3)c2n1 (stereo unspecified) + Cc1[nH]c2ccc(F)cc2c1-c1nc2c3cccnc3c3ncccc3c2[nH]1 &field=viability, T/C returns 69.9

For CC(C)(O)C1CCC(Nc2ccc3ncc(-c4cccc(C(F)(F)F)c4)n3n2)CC1 (stereo unspecified) + CN(C)c1ccc(Nc2c3ccc(NC(=O)CCN4CCCC4)cc3nc3cc(NC(=O)CCN4CCCC4)ccc23)cc1 the compound record lists viability, T/C as 96.5

Field viability, T/C (entry Cc1[nH]c2ccccc2c1CCNCc1ccc(/C=C/C(=O)NO)cc1 + Cc1[nH]c2ccc(F)cc2c1-c1nc2c3cccnc3c3ncccc3c2[nH]1 ) reads 66.9

Quick note, viability, T/C for Cc1[nH]c2ccccc2c1CCNCc1ccc(/C=C/C(=O)NO)cc1 + Cc1cnc(CNC(=O)c2c(=O)c3ccc(N4CCCN(C)CC4)nc3n3c2sc2ccccc23)cn1 landed at 30.8

viability, T/C reading for C#Cc1c(F)ccc2cc(O)cc(-c3ncc4c(N5CC6CCC(C5)N6)nc(OCC56CCCN5CC(F)C6)nc4c3F)c12 (stereo unspecified) + Cc1[nH]c2ccc(F)cc2c1-c1nc2c3cccnc3c3ncccc3c2[nH]1 : 94

Per the record, CC1COCCN1c1cc(-c2ccnn2C)c2ccnc(-c3ccn[nH]3)c2n1 (stereo unspecified) + Cc1[nH]c2ccc(F)cc2c1-c1nc2c3cccnc3c3ncccc3c2[nH]1 has viability, T/C of 50.5

Documented viability, T/C of Cn1ncnc1[C@H]1c2n[nH]c(=O)c3cc(F)cc(c23)N[C@@H]1c1ccc(F)cc1 + Cc1[nH]c2ccc(F)cc2c1-c1nc2c3cccnc3c3ncccc3c2[nH]1 : 64.9

Looking up O=C(c1cc(Cc2n[nH]c(=O)c3ccccc23)ccc1F)N1CCN(C(=O)C2CC2)CC1 + Cc1[nH]c2ccc(F)cc2c1-c1nc2c3cccnc3c3ncccc3c2[nH]1 , I see its viability, T/C listed as 72.6

compound CC(C)n1c(=O)n(C)c2cnc3cc(F)c(-c4ccc(OCCCN5CCCCC5)nc4)cc3c21 + CN(C)c1ccc(Nc2c3ccc(NC(=O)CCN4CCCC4)cc3nc3cc(NC(=O)CCN4CCCC4)ccc23)cc1 , viability, T/C observed: 97

For reference, reported viability, T/C for CCCS(=O)(=O)Nc1ccc(F)c(C(=O)c2c[nH]c3ncc(-c4ccc(Cl)cc4)cc23)c1F + Cc1[nH]c2ccc(F)cc2c1-c1nc2c3cccnc3c3ncccc3c2[nH]1 stands at 81.5

Please fill in: viability, T/C reported for C#Cc1c(F)ccc2cc(O)cc(-c3ncc4c(N5CC6CCC(C5)N6)nc(OCC56CCCN5CC(F)C6)nc4c3F)c12 (stereo unspecified) + Cc1cnc(CNC(=O)c2c(=O)c3ccc(N4CCCN(C)CC4)nc3n3c2sc2ccccc23)cn1 = 42.5
